- target.or.system: Human BCL-XL protein (N-terminal HiBiT tagged BCL-XL in HT1080 cells) (Homo sapiens, UniProt Q07817)
- Construct: expressed in transfected cells; host or cells: HT-1080 (ATCC CCL-121), stably transduced with lentivirus pLV-UBC-N-HiBiT-BCL-XL-PGK-puro and selected with puromycin
- Sequence (Q07817 whole entry): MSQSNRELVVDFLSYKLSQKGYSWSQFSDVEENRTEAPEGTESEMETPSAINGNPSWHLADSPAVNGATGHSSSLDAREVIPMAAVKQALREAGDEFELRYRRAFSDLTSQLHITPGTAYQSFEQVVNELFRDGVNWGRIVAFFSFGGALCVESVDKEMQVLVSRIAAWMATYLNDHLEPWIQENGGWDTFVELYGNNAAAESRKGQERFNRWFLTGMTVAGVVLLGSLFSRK
- assay.info: HiBiT based degradation assay
- Type: cell-based
- experimental.setup: BCL-XL degradation; HT1080 cells expressing HiBiT-BCL-XL; 24 h; read-out: EC50 (24 h)
quantity.measured: DC50

Problem: State the recorded DC50 for this entry: Cc1c(O[C@H]2CC[C@H](CCCN3CC[C@@H](c4cccc5c(C6CCC(=O)NC6=O)nn(C)c45)C3)CC2)cccc1-c1ccc(N2CCc3cccc(C(=O)Nc4nc5ccccc5s4)c3C2)nc1C(=O)O (single isomer, unassigned) [Compound 320b]
Solution: < 100 nM

Problem: Another compound to look at: Cc1c(OCCCN2CCN(CCOc3ccc4c(C5CCC(=O)NC5=O)nn(C)c4c3)CC2)cccc1-c1ccc(N2CCc3cccc(C(=O)Nc4nc5ccccc5s4)c3C2)nc1C(=O)O (stereo not drawn) [Compound 136]
Solution: < 100 nM

Problem: Another compound to look at: Cc1c(Oc2ccc(CCC(=O)Nc3ccc4c(C5CCC(=O)NC5=O)nn(C)c4c3)cc2)cccc1-c1ccc(N2CCc3cccc(C(=O)Nc4nc5ccccc5s4)c3C2)nc1C(=O)O (stereo not drawn) [Compound 107]
Solution: 1000 to 10000 nM

Problem: Another compound to look at: Cc1c(O[C@H]2CC[C@H](CCCN3CCN(c4ccc5c(C6CCC(=O)NC6=O)nn(C)c5c4)C[C@H]3C)CC2)cccc1-c1ccc(N2CCc3cccc(C(=O)Nc4nc5ccccc5s4)c3C2)nc1C(=O)O (stereo partly drawn) [Compound 273a]
Solution: < 100 nM

Problem: Another compound to look at: Cc1cc(OCCC[C@@H]2CCN(CC(=O)Nc3ccc4c(C5CCC(=O)NC5=O)nn(C)c4c3)[C@@H](C)C2)ccc1-c1ccc(N2CCc3cccc(C(=O)Nc4nc5ccccc5s4)c3C2)nc1C(=O)O (stereo partly drawn) [Compound 344d]
Solution: < 100 nM

Problem: Another compound to look at: Cc1c(OCCC[C@@H]2CCN(CC(=O)Nc3ccc4c(C5CCC(=O)NC5=O)nn(C)c4c3)CC2(F)F)cccc1-c1ccc(N2CCc3cccc(C(=O)Nc4nc5ccccc5s4)c3C2)nc1C(=O)O (stereo partly drawn) [Compound 193a]
Solution: 100 to 1000 nM

Problem: Another compound to look at: Cc1c(O[C@H]2CC[C@H](CCC(=O)N3CCN(c4cccc5c(C6CCC(=O)NC6=O)nn(C)c45)CC3)CC2)cccc1-c1ccc(N2CCc3cccc(C(=O)Nc4nc5ccccc5s4)c3C2)nc1C(=O)O (stereo partly drawn) [Compound 146a]
Solution: < 100 nM

Problem: Another compound to look at: Cc1c(OCCC2CC3(C2)CN(CC(=O)Nc2ccc4c(C5CCC(=O)NC5=O)nn(C)c4c2)C3)cccc1-c1ccc(N2CCc3cccc(C(=O)Nc4nc5ccccc5s4)c3C2)nc1C(=O)O (stereo not drawn) [Compound 277]
Solution: < 100 nM

Problem: Another compound to look at: Cc1c(OCC[C@@H](C)C2CCN(CC(=O)Nc3cccc4c(C5CCC(=O)NC5=O)nn(C)c34)CC2)cccc1-c1ccc(N2CCc3cccc(C(=O)Nc4nc5ccccc5s4)c3C2)nc1C(=O)O (stereo partly drawn) [Compound 173b]
Solution: 100 to 1000 nM

====

- target.or.system: Human BCL-XL protein (N-terminal HiBiT tagged BCL-XL in HT1080 cells) (Homo sapiens, UniProt Q07817)
- Construct: expressed in transfected cells; host or cells: HT-1080 (ATCC CCL-121), stably transduced with lentivirus pLV-UBC-N-HiBiT-BCL-XL-PGK-puro and selected with puromycin
- assay.info: HiBiT based degradation assay
- Type: cell-based
- experimental.setup: BCL-XL degradation normalized with DMSO control; HT1080 cells expressing HiBiT-BCL-XL; 24 h
quantity.measured: Ymin (24 h)

Cc1c(Oc2ccccc2CCC(=O)Nc2cccc3c(C4CCC(=O)NC4=O)nn(C)c23)cccc1-c1ccc(N2CCc3cccc(C(=O)Nc4nc5ccccc5s4)c3C2)nc1C(=O)O (stereo not drawn) [Compound 243]
B (50% ≤ Ymin < 70%)
Cc1c(Oc2ccc(CCC(=O)N3CCN(c4ccc5c(C6CCC(=O)NC6=O)nn(C)c5c4)CC3)cc2)cccc1-c1ccc(N2CCc3cccc(C(=O)Nc4nc5ccccc5s4)c3C2)nc1C(=O)O (stereo not drawn) [Compound 244]
B (50% ≤ Ymin < 70%)
Cc1c(O[C@H]2CC[C@H](CC(F)(F)C(=O)N3CCN(c4cccc5c(C6CCC(=O)NC6=O)nn(C)c45)CC3)CC2)cccc1-c1ccc(N2CCc3cccc(C(=O)Nc4nc5ccccc5s4)c3C2)nc1C(=O)O (stereo partly drawn) [Compound 171a]
B (50% ≤ Ymin < 70%)

====

- target.or.system: Human BCL-XL protein (N-terminal HiBiT tagged BCL-XL in HT1080 cells) (Homo sapiens, UniProt Q07817)
- Construct: expressed in transfected cells; host or cells: HT-1080 (ATCC CCL-121), stably transduced with lentivirus pLV-UBC-N-HiBiT-BCL-XL-PGK-puro and selected with puromycin
- assay.info: HiBiT based degradation assay
- Type: cell-based
- experimental.setup: BCL-XL degradation normalized with DMSO control; HT1080 cells expressing HiBiT-BCL-XL; 6 h
quantity.measured: Ymin (6 h)

Some compounds with known Ymin (6 h) results, for comparison:
Cc1c(-c2ccc(N3CCc4cccc(C(=O)Nc5nc6ccccc6s5)c4C3)nc2C(=O)NCCCCCCCC(=O)Nc2ccc3c(C4CCC(=O)NC4=O)nn(C)c3c2)cnn1CC12CC3CC(CC(C3)C1)C2 (stereo not shown)
B (50% ≤ Ymin < 70%)
Cc1c(OCCCN2CCN(CC(=O)Nc3ccc4c(C5CCC(=O)NC5=O)nn(C)c4c3)[C@H](C(F)(F)F)C2)cccc1-c1ccc(N2CCc3cccc(C(=O)Nc4nc5ccccc5s4)c3C2)nc1C(=O)O (stereo partly shown) [Compound 187a]
B (50% ≤ Ymin < 70%)
Cc1c(OCCC2CCN(CC(=O)Nc3cccc4c(C5CCC(=O)NC5=O)nn(C)c34)CC2)cccc1-c1ccc(N2CCc3cccc(C(=O)Nc4nc5ccccc5s4)c3C2)nc1C(=O)O (stereo not shown)
B (50% ≤ Ymin < 70%)
Cc1c(O[C@H]2CC[C@H](CCC(=O)N3CCN(c4ccc5c(C6CCC(=O)NC6=O)nn(C)c5c4)CC3)CC2)cccc1-c1ccc(N2CCc3cccc(C(=O)Nc4nc5ccccc5s4)c3C2)nc1C(=O)O (stereo partly shown) [Compound 138a]
B (50% ≤ Ymin < 70%)
Cc1c(OCC2CC3(CCN(CC(=O)Nc4ccc5c(C6CCC(=O)NC6=O)nn(C)c5c4)CC3)C2)cccc1-c1ccc(N2CCc3cccc(C(=O)Nc4nc5ccccc5s4)c3C2)nc1C(=O)O (stereo not shown)
A (Ymin < 50%)
Cc1c(OCCCCCCCN2CCN(c3cccc4c(C5CCC(=O)NC5=O)nn(C)c34)CC2)cccc1-c1ccc(N2CCc3cccc(C(=O)Nc4nc5ccccc5s4)c3C2)nc1C(=O)O (stereo not shown)
C (Ymin ≥ 70%)

Problem: State the recorded Ymin (6 h) for this entry: Cc1c(Oc2ccc(CCCC(=O)Nc3ccc4c(C5CCC(=O)NC5=O)nn(C)c4c3)cc2)cccc1-c1ccc(N2CCc3cccc(C(=O)Nc4nc5ccccc5s4)c3C2)nc1C(=O)O (stereo not shown)
Solution: C (Ymin ≥ 70%)

Problem: Another compound to look at: Cc1cc(OCCCN2CCN(CC(=O)Nc3ccc4c(C5CCC(=O)NC5=O)nn(C)c4c3)CC2)ccc1-c1ccc(N2CCc3cccc(C(=O)Nc4nc5ccccc5s4)c3C2)nc1C(=O)O (stereo not shown)
Solution: A (Ymin < 50%)

====

Can you tell me DC50 for the items I'm about to list?
- target.or.system: Human BCL-XL protein (N-terminal HiBiT tagged BCL-XL in HT1080 cells) (Homo sapiens)
- Construct: expressed in transfected cells; host or cells: HT-1080 (ATCC CCL-121), stably transduced with lentivirus pLV-UBC-N-HiBiT-BCL-XL-PGK-puro and selected with puromycin
- assay.info: HiBiT based degradation assay
- Assay type: cell-based
- experimental.setup: BCL-XL degradation; HT1080 cells expressing HiBiT-BCL-XL; 24 h; read-out: EC50 (24 h)

Problem: State the recorded DC50 for this entry: Cc1c(O[C@H]2CC[C@H](CCCN3CCN(c4ccc5c(C6CCC(=O)NC6=O)nn(C)c5c4)C(C)(C)C3)CC2)cccc1-c1ccc(N2CCc3cccc(C(=O)Nc4nc5ccccc5s4)c3C2)nc1C(=O)O (stereo partly drawn) [Compound 318a]
Solution: < 100 nM

Problem: Another compound to look at: Cc1c(OCC(F)(F)CN2C[C@@H](C)N(CC(=O)Nc3cccc4c(C5CCC(=O)NC5=O)nn(C)c34)[C@@H](C)C2)cccc1-c1ccc(N2CCc3cccc(C(=O)Nc4nc5ccccc5s4)c3C2)nc1C(=O)O (stereo partly drawn) [Compound 209a]
Solution: 100 to 1000 nM

Problem: Another compound to look at: Cc1cc2c(C3CCC(=O)NC3=O)nn(C)c2cc1N1CCN(CCCC[C@H]2CC[C@H](Oc3cccc(-c4ccc(N5CCc6cccc(C(=O)Nc7nc8ccccc8s7)c6C5)nc4C(=O)O)c3C)CC2)CC1 (stereo partly drawn) [Compound 325a]
Solution: < 100 nM
